Measured IC50, listed per entry.
system: CEM cells HIV-1 protection, formazan growth assay; assay: NCI AIDS Antiviral Assay; conditions: measured here: growth of uninfected CEM cells
Express the result in µM but write the number alone.

As a guide, the following entries are already answered.
Cc1nc2ccc(N=Nc3c(O)ccc4ccccc34)cc2[nH]1
55
CCCCCCOC(=O)c1[nH]c(=O)n(CCCCCC)c(=O)c1N
151
S=C(N1CCN(c2ccc(Cl)c(Cl)c2)CC1)N1CCN(c2ccc(Cl)c(Cl)c2)CC1
10
CNC(=S)N/N=C/c1cccc(C)n1
19.5

Noted IC50 for Cc1ccc2[nH]c3[nH]c(=S)[nH]c(=O)c3c2c1 , tested on CEM cells HIV-1 protection, formazan growth assay: 162

Noted IC50 for NC(=O)c1cccc(C2OC(COP(=O)(O)O)C(O)C2O)c1 (configuration not stated) , tested on CEM cells HIV-1 protection, formazan growth assay: 3.47

Noted IC50 for Cc1nc(N(CCO)CCO)nc2c1C(=O)Nc1ccccc1N2 , tested on CEM cells HIV-1 protection, formazan growth assay: 42.7

Noted IC50 for Nc1ncnc2c1C=C(B(O)O)B(O)N2 , tested on CEM cells HIV-1 protection, formazan growth assay: 74.1

* * *

system: CEM cells HIV-1 protection, formazan growth assay; test: NCI AIDS Antiviral Assay; details: measured here: growth of uninfected CEM cells
pIC50: −log10 of the molar value.
Record fulfilled whenever pIC50 is at 4 or higher; record not fulfilled when lower.

CCOc1cnn(-c2ccccc2)c(=O)c1Cl
not fulfilled
CCOP(=O)(OCC)/C(C#N)=C/c1cccc(C)c1
not fulfilled
O=C(Nc1ccccn1)Nc1cc(C(F)(F)F)ccc1Cl
not fulfilled
COC(=O)[C@@H]1N2C(=O)C=NO[C@H]2SC1(C)C
not fulfilled
C=CCCNCC/C=C\[Si](C)(C)C
not fulfilled

Request: Textbook exercise: given the entry O=c1cc(O)cc2n1CCC2 , state whether its pIC50 is greater than or equal to 4.
Response: not fulfilled

Request: Textbook exercise: given the entry C=C(c1ccccc1)C1ON(C)CCc2cc(OC)c(OC)cc21 (stereo not given) , state whether its pIC50 is greater than or equal to 4.
Response: not fulfilled

Request: Textbook exercise: given the entry CCC(=O)NC(NNS(=O)(=O)c1ccc(C)cc1)(C(F)(F)F)C(F)(F)F , state whether its pIC50 is greater than or equal to 4.
Response: fulfilled

Request: Textbook exercise: given the entry O=C(CC(=O)c1cccc([N+](=O)[O-])c1)C(=O)Nc1ccccc1 , state whether its pIC50 is greater than or equal to 4.
Response: not fulfilled

Request: Textbook exercise: given the entry CCCCCCC/C=N/[N-]C(=O)c1ccncc1.CCCCCCC/C=N\[N-]C(=O)c1ccncc1.[Ni+2] , state whether its pIC50 is greater than or equal to 4.
Response: fulfilled

Request: Textbook exercise: given the entry CCOC(=O)C1=C(C)N(NC(N)=O)C2(N)N(NC(N)=O)C(C)=C(C(=O)OCC)C12C#N (stereo not given) , state whether its pIC50 is greater than or equal to 4.
Response: not fulfilled

Request: Textbook exercise: given the entry CN1C(=O)c2ccccc2OC12C=Cc1c(ccc3ccccc13)O2 (stereo not given) , state whether its pIC50 is greater than or equal to 4.
Response: fulfilled

Request: Textbook exercise: given the entry Cc1ccc([N+](=O)[O-])c2c(NCCC[N+](C)(C)[O-])c3ccccc3nc12 , state whether its pIC50 is greater than or equal to 4.
Response: fulfilled
